tested on: HepG2 cells; assay: Determination of cytotoxicity, HepG2 cells, resazurin assay (Experiment 3); assay type: cell-based; conditions: 4 days
attribute_measured: CC50

CC(C)[C@@H]1C=Cc2c(cn(C)c2C(=O)Nc2ccc(F)c(C#N)c2)S(=N)(=O)N1 (single isomer, unassigned) | > 30 µM

Return the recorded CC50 value; entry: Cn1cc2c(c1C(=O)Nc1ccc(F)c(C#N)c1)CC[C@H](C1CC1)NS2(=N)=O (single isomer, unassigned)
> 30 µM

Look up CC50 of CC(C)[C@H]1C=Cc2c(cn(C)c2C(=O)Nc2ccc(F)c(C#N)c2)S(=N)(=O)N1 (single isomer, unassigned) and report it.
> 30 µM

# credit: patent US12630564B2
